# experimental-system: purified human farnesyl protein transferase (Homo sapiens, UniProt P49354+P49356)
# test-summary: FPT IC50 Assay
# experimental-parameters: transfer of [3H] farnesyl to biotinylated H-ras peptide (biotin-CVLS), 37° C., 60 minutes
pIC50: −log10 of the molar value.
recorded-endpoint: pIC50

> print(dat)
                               input.smiles  recorded.endpoint  observed.measurement
1  Cc1cn(C[C@@H]2CCCN(C(=O)[C@@H]3CN([C@H]4c5ccc(Cl)cc5OCc5cccnc54)CCN3C(=O)OC(C)(C)C)C2)cn1              pIC50                  9.92

(a) Cc1cn(C[C@@H]2CCCN(C(=O)[C@H]3CN([C@@H]4c5ccc(Cl)cc5OCc5cccnc54)CCN3C(=O)OC3CCCCC3)C2)cn1
(b) Cc1cn(CCCN(Cc2ccccc2)C(=O)[C@H]2CN([C@H]3c4ccc(Cl)cc4OCc4cccnc43)CCN2C(=O)OC(C)(C)C)cn1
From the items above, decide which of a and b has the lower pIC50 reading. When you have decided, please share the label of that item.
b
